Can you tell me apparent Kd for the items I'm about to list?
- Test system: MS2 coat protein
- experiment_notes: apparent Kd, MS2 coat protein; higher = weaker binding; RNA-MaP array
- particulars: ligand present: tryptophan; designed as: ON switch for tryptophan
Provide the reading as a plain figure in nM.

Query :: Could you share what apparent Kd was measured for UCCCUACCGUCGGCCGCCACUGGGUCAUACAGUUCGUAACUACAUGAGGAUCACCCAUGUGCAGCCAGGACCGGGACGCGCCUUG , tested on MS2 coat protein?
Result :: 106

Query :: What value of apparent Kd on MS2 coat protein does UUUCAAGUAUCGGCCGCCACUCUAGUUGGUUGUUCAAUCCGAUUACAUGAGGAUCACCCAUGUCUGAGGACCGGGAUAAAGUAAU have?
Result :: 31.8

Query :: Please state recorded apparent Kd (tested on MS2 coat protein) of AUUGUCAAGUCGGCCGCCACUUCUGCCAUGGCCACCAGUCGACAUGAGGAUCACCCAUGUCUCUUAAGGACCGGGACUUUCAAUU
Result :: 12.1

Query :: Give apparent Kd (MS2 coat protein) of the following sequence: CGCGAGACGGCGGCCGCCACUUGUUGUUGGAAACUCGAGUUACAUGAGGAUCACCCAUGUCCUUAAAGGACCGGGCCGUAAGUAA
Result :: 164

Query :: Notebook entry, MS2 coat protein assay: apparent Kd of AAGAACAUGAGGAUCACCCAUGUGAUCGUUCGAGGACCGGUACGGCCGCCACUCGGACCUGUGUCCAGGCACGGGCCGACGCGAC = ?
Result :: 38.2

====

- System: MS2 coat protein
- experiment_notes: apparent Kd, MS2 coat protein; higher = weaker binding; RNA-MaP array; FMN 200 µM where present
- particulars: ligand present: flavin mononucleotide; designed as: ON switch for flavin mononucleotide
Each record gets a class by apparent Kd: lower bin (below 20 nM), middle bin (20 nM to below 40 nM), upper bin (40 nM or more)

Query :: Given GGAGCUCCCAUUAACAUGAGGAUCACCCAUGUCAAAAGACAUGAGGAUAUGGUACCUAAUUGGUACCAGAAGGCAUGGAGCUCC , name the class its apparent Kd places it in.
Result :: upper bin

Query :: # classify by apparent Kd band: UAAGUACAUGAGGAUCACCCAUGUUGGAAUAGAGCAGGAUAUGUGCAGAGGGAAAUAAAAACAGAAGGGCUAAGAA
Result :: middle bin

Query :: Which class does GCGUUGUUGUAGAAGGUACAUGAAUACUUUUAAUACCUCAAGUAACAUGAGGAUCACCCAUGUAGUAAGGAUAUACAUGAACGC fall in?
Result :: middle bin

Query :: Lab note: sort UUGGAGUACGUAGGAUAUGUAGGAUAUUCCUACAUGAGGAUCACCCAUGUUAGCAUGGAAGAAGGACAGAAGGACGUGCUCCAU into the matching apparent Kd band.
Result :: lower bin

Query :: Exam item: assign AGCUACGUUUCGUAGCAGUGUCAUCGAGAAGGCUCAUAAACAUGAGGAUCACCCAUGUAAACAUGGGAGGAUAUCGAUGAUACA to the correct category.
Result :: lower bin

Query :: Classify this sequence: GUUUACGCAUGAGGAUAUGCUCGCAUUUCAAGAGCAGAAGGUAUGUCUUUAGACAUGAGGAUCACCCAUGUAUUUAUCAUUGUA
Result :: middle bin

Query :: Class for CGCAAACAUGAGGAUCACCCAUGUCAAUGUGAUCAAGGAUAUGGGUUCCUAAACGGAACACCAGAAGGUGAGUAGA ?
Result :: middle bin

Query :: For CGCUACUACCAGAAGGACAUGAGGAUCACCCAUGUAGGAUAUGGGUUACACGUUCCUGUGUAUUGUUACUACGCUACGUAUGCG , which apparent Kd bin applies?
Result :: lower bin

Query :: Please indicate the class for GUACCUUAUGAGAAGGCGAUCAUAAAACGUGAUCGAGGAUAUCAUGUAAACAUGAGGAUCACCCAUGUAUGGGUAUUAUGGUAC based on its apparent Kd.
Result :: lower bin

Query :: Field: class (apparent Kd) — entry: GGAAUAUUUACAGGAUAUGUUUUGUUAAGUCGAGCAGAAGGGUGGAUGUCUUACACGGUUUGUUACAUGAGGAUCACCCAUGUC
Result :: upper bin

Query :: Categorize the following entry: GUAACAUGAGGAUCACCCAUGUCGUGCUAGAUGAGUUCUAGUGAGGAUAUACAUGGUAAAUAACUGUAGAAGGUGCUGGGUACA
Result :: upper bin

Query :: Entry UUGCUCGUGUGAGGAUAUGCCGCCGUUUCGGCUGCAGAAGGUACUCUUGUACAUGAGGAUCACCCAUGUCUCUGUUGUUUCGUG belongs to which category?
Result :: upper bin

Query :: Sort GGUCGUCACAUAUACAUGAGGAUCACCCAUGUAAAAUAACAUGAGGAUAUGGAUCCUAAUUGGAUCCAGAAGGCAUGGACGACC into one of the categories.
Result :: lower bin
